# METHOD NOTES: yeast display, Sf9 membrane polyspecificity reagent, FACS + sequencing; frameworks hold sequencing errors

{"SEQUENCE ENTRY": "QVHLVESGGGLVQAGGSLRLSCAASGSIFVENAMGWYRQPPGKEREFVAAITRSGGSTYYADSVKGRFTISRDNAKNTVYLQMNSLKPEDTAVYYCAARIWDEQPAAGYYWGQGTQVTVSS", "polyreactivity (PSR sort gate)": "low polyreactivity"}
{"SEQUENCE ENTRY": "QVQLVESGGRLVKAGGSLRLSCAASGRTFSSYAMGWYRHAPGKERELVAAISSGGSTYYADSVKGRFTISRDNAKNTVYILMNSQIPEDTAVYYCNRRLYYKIGRGFSYYWGQGTQVTVSS", "polyreactivity (PSR sort gate)": "high polyreactivity"}
{"SEQUENCE ENTRY": "QVQLVESGGGLVQAGGSLRLSCAASGSTFGSYAMGWYRQAPGKERELVAAISRGGGSTYYADSVKGRFTISRDNAKNTVYLQMKSLKPEDTAVYYCAASFSRYGLVLYSIEDYWGQGTQVTVSS", "polyreactivity (PSR sort gate)": "high polyreactivity"}
{"SEQUENCE ENTRY": "QVQLVESGGVLVQAGGSLRLSCAASGSIFYSYAMGWYRQAPGKDRELVAAITRSGGSTYYADSVKGRFTISRENAKNTVYVQMHSLKPEDTAGYYCNARGKGDYYWGQGTQVTVSS", "polyreactivity (PSR sort gate)": "high polyreactivity"}
{"SEQUENCE ENTRY": "QVQLVESGGGLVQAGGSLRLSCAASGSIFTRNAMGWYRQAPGKERELVAAISRGGGTNYADSVKGRFTISRDNAKNTVYLQMNSLKPEDTAVYYCAARVGYPYPAGYDYWGQGTQVTVSS", "polyreactivity (PSR sort gate)": "high polyreactivity"}
{"SEQUENCE ENTRY": "QVQHVESGGGLVQAAGSLRLSCAASGRIFYRNAMGWSRQAPGKERELVAAISKSGGSTYYSDSVKGRFTISRDNAKNTVYLQMNSLKPEDTAVYYCAAGTRLSDGYYWGQGTQVTVSS", "polyreactivity (PSR sort gate)": "high polyreactivity"}
{"SEQUENCE ENTRY": "QVQLVESGGGLVQAGGSLRLSCAASGSTFGTNAMGWYRQAPGKERELVAAISVSSTYYADSVKGRFTISRDNAKNTVYLQMNSLKPEDTAVYYCAADNSYGYRLDYWGQGTQVTVSS", "polyreactivity (PSR sort gate)": "low polyreactivity"}
{"SEQUENCE ENTRY": "QVQLVESGGGLVQAGGSLRLSCADSGSTFEANAMGWYRQAPGKERELVAAISSGGRTYYADSEKGRFTISRDNAKNTVYLKRNSLKPEDTAVYYCAAYVRRGFDWGQGTQVTVSS", "polyreactivity (PSR sort gate)": "high polyreactivity"}
{"SEQUENCE ENTRY": "QVQLVESGGGLVQAGGTLRLSCAASGFTFGFYAMGWYRQAPGKERELVAAITWSGGSTYYADSVKGRFTISRDNAKNTVYLQMNSLKPEDTAVYYCNAYTYGSEFDYWGQGTQVTVSS", "polyreactivity (PSR sort gate)": "high polyreactivity"}
{"SEQUENCE ENTRY": "QVQLVESGGGLVQAGGSLRLSCAASGITFYRYAMGWYRQAPGKERELVAAITWSGGSTYYADSVKGRFTISRDNAKNTVYLQMNSLKPEDTAVYYCAVDYTPEDWGDDYWGQGTQVTVSS", "polyreactivity (PSR sort gate)": "low polyreactivity"}
{"SEQUENCE ENTRY": "QVQLEESGAGLVQAGGSLRLSCAPSGIIYDGNAMGWYRKAPGKERELLASITSDSSTNYADSVKGRFTISRDNAKYTVYLHMNSLKPQDTAVYYCAADHWIAPRRDYWGQGTQVTVSS", "polyreactivity (PSR sort gate)": "low polyreactivity"}

Measured values drawn from the nanobody polyreactivity screen of Harvey et al. (2022) for this set.
